B1: F1*; the commonest letter at each place (parent)
chain: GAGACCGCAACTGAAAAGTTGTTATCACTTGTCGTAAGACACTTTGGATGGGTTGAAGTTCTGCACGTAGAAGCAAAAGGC

# Variants of: B1
# assay notes: fraction ligated after 30 min (ligated reads / total reads); higher = more ligase activity
# condition parameters: with F1*sub RNA substrate (template-directed ligation), 42 °C
endpoint: fraction ligated
# print the numeric value only

Answered examples (4):
Fill in the blank: the reported fraction ligated of C26G T44A is ____.
0.781

Fill in: fraction ligated of T30A A56G is ___
0.797

Requested read-out: fraction ligated. Entry: G31A T32G
0.837

Dear colleague, I am looking for the recorded fraction ligated of the following variant: A41G T49A
0.671

More entries:
Which measured fraction ligated value corresponds to C28A A56C ?
0.718

Reported fraction ligated for A24T G47A : what is it?
0.797

Item A36C C40G has what recorded fraction ligated?
0.818

Please give the measured fraction ligated for this variant: T30G A41T
0.82

Entry A27G T32G has what fraction ligated?
0.827

Entry C33T A37G : reported fraction ligated = ?
0.878

Could you tell me which fraction ligated is on file for A24T G38A ?
0.205
